target desc: Recombinant human HSP90α (Homo sapiens)
test summary: HSP90 radioligand filter binding test, competition with [3H]17AAG
test settings: [3H]17AAG 0.08 μM; HSP90 1.5 μg/assay; 22° C., 30 min; read-out: HSP90 inhibition IC50
Each record here notes measured IC50.
property name: IC50 (nM)

cpd smiles	property name	uom	result number
COc1ccc(-c2c(C#N)c(N)nc3sc(C(N)=O)c(N)c23)cc1OCc1ccc(C(=O)O)cc1	IC50	nM	740
CCOC(=O)c1sc2nc(N)c(C#N)c(-c3ccc(OC)c(OC)c3)c2c1N	IC50	nM	14000
CCOC(=O)CCCCOc1cc(-c2c(C#N)c(N)nc3sc(C(N)=O)c(N)c23)ccc1OC	IC50	nM	1500
COc1ccc(-c2c(C#N)c(N)nc3sc(C(N)=O)c(N)c23)cc1OCCCCCC(=O)O	IC50	nM	890
